- Tested on: G12V antigen peptide presented on SW620-DPB cells (SW620 expressing HLA-DPB1*03:01) (human)
- Test details: cell-based or functional assay
Assay endpoint: EC50 µg/ml (Functional Avidity)

Here is how some binders turned out for EC50 µg/ml (Functional Avidity).
Binder	EC50 µg/ml (Functional Avidity)
α52T-H (TCR) TCR alpha: AQSVAQPEDQVNVAEGNPLTVKCTYSVSGNPYLFWYVQYPNRGLQFLLKYIHGDNLVKGSYGFEAEFNKSQTSFHLKKPSALVSDSALYFCAVRDGRGGGNKLTFGTGTQLKVEL TCR beta: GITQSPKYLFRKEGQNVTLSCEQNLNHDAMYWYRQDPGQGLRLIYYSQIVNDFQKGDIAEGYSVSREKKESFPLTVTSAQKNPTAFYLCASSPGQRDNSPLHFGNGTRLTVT	1.03 µg/mL
α51I-Y (TCR) TCR alpha: AQSVAQPEDQVNVAEGNPLTVKCTYSVSGNPYLFWYVQYPNRGLQFLLKYYTGDNLVKGSYGFEAEFNKSQTSFHLKKPSALVSDSALYFCAVRDGRGGGNKLTFGTGTQLKVEL TCR beta: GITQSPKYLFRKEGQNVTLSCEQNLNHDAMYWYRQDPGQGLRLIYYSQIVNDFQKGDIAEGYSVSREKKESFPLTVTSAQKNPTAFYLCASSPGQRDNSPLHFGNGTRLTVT	0.894 µg/mL
β50Q-T (TCR) TCR alpha: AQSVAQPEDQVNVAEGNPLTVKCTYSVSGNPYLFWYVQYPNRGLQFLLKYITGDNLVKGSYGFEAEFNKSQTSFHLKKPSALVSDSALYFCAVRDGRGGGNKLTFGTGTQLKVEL TCR beta: GITQSPKYLFRKEGQNVTLSCEQNLNHDAMYWYRQDPGQGLRLIYYSTIVNDFQKGDIAEGYSVSREKKESFPLTVTSAQKNPTAFYLCASSPGQRDNSPLHFGNGTRLTVT	1.34 µg/mL

In: Requested field: EC50 µg/ml (Functional Avidity). Item: β56Q-A (TCR) TCR alpha: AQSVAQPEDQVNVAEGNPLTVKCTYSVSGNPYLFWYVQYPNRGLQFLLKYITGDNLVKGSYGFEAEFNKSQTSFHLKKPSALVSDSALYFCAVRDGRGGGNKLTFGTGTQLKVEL TCR beta: GITQSPKYLFRKEGQNVTLSCEQNLNHDAMYWYRQDPGQGLRLIYYSQIVNDFAKGDIAEGYSVSREKKESFPLTVTSAQKNPTAFYLCASSPGQRDNSPLHFGNGTRLTVT
Out: 0.859 µg/mL

In: Now try α49K-G (TCR) TCR alpha: AQSVAQPEDQVNVAEGNPLTVKCTYSVSGNPYLFWYVQYPNRGLQFLLGYITGDNLVKGSYGFEAEFNKSQTSFHLKKPSALVSDSALYFCAVRDGRGGGNKLTFGTGTQLKVEL TCR beta: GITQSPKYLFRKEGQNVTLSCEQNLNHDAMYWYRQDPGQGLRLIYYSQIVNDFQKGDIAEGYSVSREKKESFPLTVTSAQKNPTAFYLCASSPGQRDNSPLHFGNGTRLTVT .
Out: 0.809 µg/mL
